The origin of these recorded values is the supplement of paper PMC7600603.

- Tested on: DLD1 NRF2-WT
- Condition details: 72 h; CellTiter-Glo viability
Consider the cut-off 0.5 µM. If the recorded EC50 viability is strictly smaller, the label is t; if not, the label is f.

// below: answered compounds
{"columns": ["Compound", "Assayed system", "Label class"],
 "data": [
  ["COc1cc(Nc2ncc3c(n2)-c2ccc(Cl)cc2C(c2c(F)cccc2OC)=NC3)ccc1C(=O)O", "DLD1 NRF2-WT", "t"],
  ["CNC(=O)c1cc(Oc2ccc(NC(=O)Nc3ccc(Cl)c(C(F)(F)F)c3)c(F)c2)ccn1", "DLD1 NRF2-WT", "f"],
  ["COc1cc2ncnc(Oc3cccc(NC(=O)Nc4cc(C(C)(C)C(F)(F)F)on4)c3)c2cc1OC", "DLD1 NRF2-WT", "f"],
  ["COc1c(OCCCN2CCOCC2)ccc2c1N=C(NC(=O)c1cnc(N)nc1)N1CCN=C21", "DLD1 NRF2-WT", "t"],
  ["Nc1ncn([C@@H]2O[C@H](CO)[C@@H](O)[C@H]2O)c(=O)n1", "DLD1 NRF2-WT", "f"],
  ["CO[C@@H]1[C@H](N(C)C(=O)c2ccccc2)C[C@H]2O[C@]1(C)n1c3ccccc3c3c4c(c5c6ccccc6n2c5c31)C(=O)NC4", "DLD1 NRF2-WT", "f"],
  ["COc1cc2c(Oc3ccc4[nH]c(C)cc4c3F)ncnc2cc1OCCCN1CCCC1", "DLD1 NRF2-WT", "t"],
  ["COc1cc(N2CCC(N3CCN(C)CC3)CC2)ccc1Nc1ncnc(Nc2ccccc2S(=O)(=O)C(C)C)n1", "DLD1 NRF2-WT", "f"]
]}

Dear colleague, could you confirm whether EC50 viability of COc1cc2nccc(Oc3ccc(NC(=O)Nc4cc(C)on4)c(Cl)c3)c2cc1OC falls below 0.5 µM? Thanks.
f

Entry CC(=O)N(O)CCCCCNC(=O)CCC(=O)N(O)CCCCCNC(=O)CCC(=O)N(O)CCCCCN please
f

Entry CC(C)(C)Cn1c(N)nc2ccc(-c3[nH]c(C(C)(C)C)nc3-c3ccc(F)cc3)nc21 please
f

Entry CNC(=O)c1ccccc1Nc1nc(Nc2ccc3c(c2OC)CCC[C@H](N2CCN(CCO)CC2)C3)ncc1Cl please
f

Entry COc1cc(OC2CCN(C)CC2)ccc1Nc1ncc2c(n1)n(C1CCCC1)c(=O)n2C please
f

Entry FC(F)(F)c1ccc(CNc2ccc(Cc3c[nH]c4ncc(Cl)cc34)cn2)cn1 please
f

Entry Cc1nc(Nc2n[nH]c3c2CN(C(=O)N[C@H](CN(C)C)c2ccccc2)C3(C)C)c2sccc2n1 please
t

Entry Cc1[nH]nc(C(F)(F)F)c1Cc1sc2c(c1C(=O)N1C[C@](C)(O)CO1)c(=O)n(C)c(=O)n2C(C)C please
f

Entry NC[C@@](O)(c1ccc(Cl)cc1)c1ccc(-c2cn[nH]c2)cc1 please
t

Entry Nc1ccn([C@@H]2O[C@H](CO)[C@@H](O)C2(F)F)c(=O)n1 please
t

Entry O=C(/C=C\n1cnc(-c2cc(C(F)(F)F)cc(C(F)(F)F)c2)n1)NNc1cnccn1 [Selinexor] please
t

Entry c1cn2cc(-c3ccc4cn[nH]c4c3)nc(Nc3ccc(N4CCOCC4)cc3)c2n1 please
f

Entry CC1(C)OCCn2c1nc1c(N3CCOCC3)nc(-c3cnc(N)nc3)nc12 please
f

Entry CCNc1nc(Nc2cc(F)c(C(=O)N3CCOCC3)cc2OC)ncc1C(F)(F)F please
t

Entry CCCN(CCC)C(=O)C1=Cc2ccc(-c3ccc(C(=O)N4CCCC4)cc3)cc2N=C(N)C1 please
f
